- Tested on: Staphylococcus aureus SA1199
- TEST METHOD NOTES: MIC, standard broth micro-dilution assay, SA 1199
- Type: cell-based
We begin with a simple list: items and their reported minimal inhibitory concentration (MIC), SA 1199.
Field format: numeric only.

Solved entries (count: 5):
INSERT INTO assay_data (molecule, measured_result) VALUES
  ('CC(C)CC(NCc1ccc(-c2ccccc2)cc1)C(=O)NC1C(=O)NC(CC(N)=O)C(=O)NC2C(=O)NC3C(=O)NC(C(=O)NC(C(=O)O)c4cc(O)cc(O)c4-c4cc3ccc4O)C(OC3CC(C)(N)C(O)C(C)O3)c3ccc(c(Cl)c3)Oc3cc2cc(c3OC2OC(CO)C(O)C(O)C2OC2CC(C)(N)C(O)C(C)O2)Oc2ccc(cc2Cl)C1O (stereo not drawn)', 0.125),
  ('CCCCCCNC(CC(C)C)C(=O)NC1C(=O)NC(CC(N)=O)C(=O)NC2C(=O)NC3C(=O)NC(C(=O)NC(C(=O)O)c4cc(O)cc(O)c4-c4cc3ccc4O)C(OC3CC(C)(N)C(O)C(C)O3)c3ccc(c(Cl)c3)Oc3cc2cc(c3OC2OC(CO)C(O)C(O)C2OC2CC(C)(N)C(O)C(C)O2)Oc2ccc(cc2Cl)C1O (stereo not drawn)', 0.125),
  ('CC(C)CC(NC(=O)OC(C)(C)C)C(=O)NC1C(=O)NC(CC(N)=O)C(=O)NC2C(=O)NC3C(=O)NC(C(=O)NC(C(=O)O)c4cc(O)cc(O)c4-c4cc3ccc4O)C(OC3CC(C)(N)C(O)C(C)O3)c3ccc(c(Cl)c3)Oc3cc2cc(c3OC2OC(CO)C(O)C(O)C2OC2CC(C)(NCc3ccc(-c4ccccc4)cc3)C(O)C(C)O2)Oc2ccc(cc2Cl)C1O (stereo not drawn) [Example 18]', 0.5),
  ('CC(C)CC(N)C(=O)NC1C(=O)NC(CC(N)=O)C(=O)NC2C(=O)NC3C(=O)NC(C(=O)NC(C(=O)O)c4cc(O)cc(O)c4-c4cc3ccc4O)C(OC3CC(C)(N)C(O)C(C)O3)c3ccc(c(Cl)c3)Oc3cc2cc(c3OC2OC(CO)C(O)C(O)C2OC2CC(C)(NCc3ccc(-c4ccccc4)cc3)C(O)C(C)O2)Oc2ccc(cc2Cl)C1O (stereo not drawn) [Example 13]', 1),
  ('CC1OC(OC2C(Oc3c4cc5cc3Oc3ccc(cc3Cl)[C@@H](O)[C@@H](NC(=O)[C@@H](Cc3ccc(Cl)cc3)NC(=O)OC(C)(C)C)C(=O)N[C@@H](CC(N)=O)C(=O)N[C@H]5C(=O)N[C@H]3C(=O)NC(C(=O)N[C@H](C(=O)O)c5cc(O)cc(O)c5-c5cc3ccc5O)[C@H](OC3CC(C)(N)C(O)C(C)O3)c3ccc(c(Cl)c3)O4)OC(CO)C(O)C2O)CC(C)(N)C1O (stereo partly drawn)', 0.125);

### Prompt Supply recorded minimal inhibitory concentration (MIC), SA 1199 for CC(C)C[C@@H](N)C(=O)N[C@H]1C(=O)N[C@@H](CC(N)=O)C(=O)N[C@H]2C(=O)N[C@H]3C(=O)NC(C(=O)N[C@H](C(=O)O)c4cc(O)cc(O)c4-c4cc3ccc4O)[C@H](OC3CC(C)(N)C(O)C(C)O3)c3ccc(c(Cl)c3)Oc3cc2cc(c3OC2OC(CO)C(O)C(O)C2OC2CC(C)(N)C(O)C(C)O2)Oc2ccc(cc2Cl)[C@H]1O (stereo partly drawn) here.
### Response 0.25

### Prompt Supply recorded minimal inhibitory concentration (MIC), SA 1199 for CC1OC(OC2c3ccc(c(Cl)c3)Oc3cc4cc(c3OC3OC(CO)C(O)C(O)C3OC3CC(C)(NCc5ccc(-c6ccccc6)cc5)C(O)C(C)O3)Oc3ccc(cc3Cl)C(O)C(NC(=O)C(N)Cc3ccc(Cl)cc3)C(=O)NC(CC(N)=O)C(=O)NC4C(=O)NC3C(=O)NC2C(=O)NC(C(=O)O)c2cc(O)cc(O)c2-c2cc3ccc2O)CC(C)(N)C1O (stereo not drawn) [Example 22] here.
### Response 2

### Prompt Supply recorded minimal inhibitory concentration (MIC), SA 1199 for CC(C)CCC(=O)NC1C(=O)NC(CC(N)=O)C(=O)NC2C(=O)NC3C(=O)NC(C(=O)NC(C(=O)O)c4cc(O)cc(O)c4-c4cc3ccc4O)C(OC3CC(C)(N)C(O)C(C)O3)c3ccc(c(Cl)c3)Oc3cc2cc(c3OC2OC(CO)C(O)C(O)C2OC2CC(C)(NCc3ccc(-c4ccccc4)cc3)C(O)C(C)O2)Oc2ccc(cc2Cl)C1O (stereo not drawn) here.
### Response 0.25

### Prompt Supply recorded minimal inhibitory concentration (MIC), SA 1199 for CC(C)CC(N)C(=O)NC1C(=O)NC(CC(N)=O)C(=O)NC2C(=O)NC3C(=O)NC(C(=O)NC(C(=O)O)c4cc(O)cc(O)c4-c4cc3ccc4O)C(OC3CC(C)(N)C(O)C(C)O3)c3ccc(c(Cl)c3)Oc3cc2cc(c3OC2OC(CO)C(O)C(O)C2OC2CC(C)(NCc3ccc(-c4ccccc4)cc3)C(O)C(C)O2)Oc2ccc(cc2Cl)C1O (stereo not drawn) [Example 27] here.
### Response 1

### Prompt Supply recorded minimal inhibitory concentration (MIC), SA 1199 for CC1OC(OC2c3ccc(c(Cl)c3)Oc3cc4cc(c3OC3OC(CO)C(O)C(O)C3OC3CC(C)(NCc5ccc(-c6ccc(Cl)cc6)cc5)C(O)C(C)O3)Oc3ccc(cc3Cl)C(O)C(NC(=O)CCCCCCCc3ccccc3)C(=O)NC(CC(N)=O)C(=O)NC4C(=O)NC3C(=O)NC2C(=O)NC(C(=O)O)c2cc(O)cc(O)c2-c2cc3ccc2O)CC(C)(N)C1O (stereo not drawn) here.
### Response 4

### Prompt Supply recorded minimal inhibitory concentration (MIC), SA 1199 for CC(C)CCC(=O)NC1C(=O)NC(CC(N)=O)C(=O)NC2C(=O)NC3C(=O)NC(C(=O)NC(C(=O)O)c4cc(O)cc(O)c4-c4cc3ccc4O)C(OC3CC(C)(N)C(O)C(C)O3)c3ccc(c(Cl)c3)Oc3cc2cc(c3OC2OC(CO)C(O)C(O)C2OC2CC(C)(NCc3ccc(-c4ccc(Cl)cc4)cc3)C(O)C(C)O2)Oc2ccc(cc2Cl)C1O (stereo not drawn) here.
### Response 1

### Prompt Supply recorded minimal inhibitory concentration (MIC), SA 1199 for CC1OC(OC2c3ccc(c(Cl)c3)Oc3cc4cc(c3OC3OC(CO)C(O)C(O)C3OC3CC(C)(NCc5ccc(-c6ccccc6)cc5)C(O)C(C)O3)Oc3ccc(cc3Cl)C(O)C(NC(=O)C3CCCN3C(=O)OC(C)(C)C)C(=O)NC(CC(N)=O)C(=O)NC4C(=O)NC3C(=O)NC2C(=O)NC(C(=O)O)c2cc(O)cc(O)c2-c2cc3ccc2O)CC(C)(N)C1O (stereo not drawn) [Example 26] here.
### Response 1

* * *

We begin with a simple list: items and their reported minimal inhibitory concentration (MIC), EC 14.
- System: Escherichia coli EC14
- TEST METHOD NOTES: MIC, standard broth micro-dilution assay, EC 14
- Assay type: cell-based

INSERT INTO results (molecule, assayed_system, measured_result) VALUES
  ('CC1OC(OC2c3ccc(c(Cl)c3)Oc3cc4cc(c3OC3OC(CO)C(O)C(O)C3OC3CC(C)(NCc5ccc(-c6ccccc6)cc5)C(O)C(C)O3)Oc3ccc(cc3Cl)C(O)C(NC(=O)C3CCCN3C(=O)OC(C)(C)C)C(=O)NC(CC(N)=O)C(=O)NC4C(=O)NC3C(=O)NC2C(=O)NC(C(=O)O)c2cc(O)cc(O)c2-c2cc3ccc2O)CC(C)(N)C1O (stereo not drawn) [Example 26]', 'Escherichia coli EC14', '>64'),
  ('CSCCC(NC(=O)OC(C)(C)C)C(=O)NC1C(=O)NC(CC(N)=O)C(=O)NC2C(=O)NC3C(=O)NC(C(=O)NC(C(=O)O)c4cc(O)cc(O)c4-c4cc3ccc4O)C(OC3CC(C)(N)C(O)C(C)O3)c3ccc(c(Cl)c3)Oc3cc2cc(c3OC2OC(CO)C(O)C(O)C2OC2CC(C)(NCc3ccc(-c4ccccc4)cc3)C(O)C(C)O2)Oc2ccc(cc2Cl)C1O (stereo not drawn)', 'Escherichia coli EC14', '>64');

Now consider the entry below.
### Prompt Given CC1OC(OC2c3ccc(c(Cl)c3)Oc3cc4cc(c3OC3OC(CO)C(O)C(O)C3OC3CC(C)(N)C(O)C(C)O3)Oc3ccc(cc3Cl)C(O)C(NC(=O)C(Cc3ccccc3)N(C)C(=O)OC(C)(C)C)C(=O)NC(CC(N)=O)C(=O)NC4C(=O)NC3C(=O)NC2C(=O)NC(C(=O)O)c2cc(O)cc(O)c2-c2cc3ccc2O)CC(C)(N)C1O (stereo not drawn) , report its minimal inhibitory concentration (MIC), EC 14 on Escherichia coli EC14.
### Response >64

* * *

- Tested on: Haemophilus influenzae RD
- TEST METHOD NOTES: MIC, standard broth micro-dilution assay, HFRD
- Assay type: cell-based
ENDPOINT: minimal inhibitory concentration (MIC), HFRD

INSERT INTO results (molecule, measured_result) VALUES
  ('CC1OC(OC2c3ccc(c(Cl)c3)Oc3cc4cc(c3OC3OC(CO)C(O)C(O)C3OC3CC(C)(NCc5ccc(-c6ccccc6)cc5)C(O)C(C)O3)Oc3ccc(cc3Cl)C(O)C(NC(=O)C(N)CCCCN)C(=O)NC(CC(N)=O)C(=O)NC4C(=O)NC3C(=O)NC2C(=O)NC(C(=O)O)c2cc(O)cc(O)c2-c2cc3ccc2O)CC(C)(N)C1O (stereo not drawn) [Example 23]', '>64'),
  ('CC(C)C(C(=O)NC1C(=O)NC(CC(N)=O)C(=O)NC2C(=O)NC3C(=O)NC(C(=O)NC(C(=O)O)c4cc(O)cc(O)c4-c4cc3ccc4O)C(OC3CC(C)(N)C(O)C(C)O3)c3ccc(c(Cl)c3)Oc3cc2cc(c3OC2OC(CO)C(O)C(O)C2OC2CC(C)(N)C(O)C(C)O2)Oc2ccc(cc2Cl)C1O)N(C)C(=O)OC(C)(C)C (stereo not drawn) [Example 41]', 'no');
